tested on: UACC-62; experiment: NCI tumour cell line growth inhibition, 48 h
The source made the active and inactive calls. No stated cut-off is given here; in the data, active = GI50 up to about 1.1 µM and inactive = higher.
Outcomes: active, inactive

- Compound: "O=C(OC(=C(c1ccccc1)c1ccccc1)N1CCCC1=S)C(c1ccccc1)c1ccccc1"
  Assigned label: "inactive"
- Compound: "CC12CCC(O)CC1CCC1C2CCC2(C)C(C(=O)CC(O)C(F)(F)F)CCC12 (stereo not given)"
  Assigned label: "inactive"
- Compound: "CC(=O)OC1COC(n2c(N)c(C#N)c(C)c(C#N)c2=S)C(OC(C)=O)C1OC(C)=O (stereo not given)"
  Assigned label: "inactive"
- Compound: "CCCCCCCCCCCCCCCCCc1nc(C#N)c(N)o1"
  Assigned label: "inactive"
- Compound: "O=C(CSCC(=O)N/N=C/c1ccccc1)N/N=C\\c1ccccc1"
  Assigned label: "inactive"
- Compound: "CCOC(=O)/C=C(\\C(=O)OCC)n1cc(C)c(=O)n(Cc2cnnn2CCCCOC(C)=O)c1=O"
  Assigned label: "inactive"
- Compound: "C/N=C(\\Nc1cccc(C(F)(F)F)c1)SCc1ccc(N=C=S)cc1"
  Assigned label: "inactive"
- Compound: "Cc1cccc(/C=N/NC(=S)N(C)CCc2ccccn2)n1"
  Assigned label: "active"
- Compound: "COC(=O)[C@@H]1c2cc3c(c(O)c2[C@@H](OC2OC(C)C(OC)C(C)(OC)C2OC)C[C@]1(C)O)C(=O)c1c(O)cc2c(c1C3=O)O[C@H]1O[C@]2(C)[C@H](O)[C@@H](N(C)C)[C@@H]1O (stereo not given in full)"
  Assigned label: "active"
- Compound: "CCOC(=O)c1cc(-c2ccc(-c3cc(C(=O)OCC)c(C#N)c(N)c3C#N)cc2)c(C#N)c(N)c1C#N"
  Assigned label: "inactive"
- Compound: "CCCCCCNC(=O)C1=C(C)NC(C)=C(C(=O)NCCCCCC)C1"
  Assigned label: "inactive"
- Compound: "Cc1ccc(Nc2nnc(-c3ccc4c(c3)OCO4)o2)c(C)c1"
  Assigned label: "inactive"
- Compound: "c1ccc(-c2ccc(-c3cc4ccccc4[nH]3)cc2)cc1"
  Assigned label: "inactive"
- Compound: "CC1(C)CC(=O)C2(CC(CSc3ccccc3)C(CS(=O)(=O)c3ccccc3)C2)C(=O)C1 (stereo not given)"
  Assigned label: "inactive"
- Compound: "C[C@@]12CCC(=O)C=C1CC[C@H]1C2=CC[C@]2(C)C1CC[C@@]2(C)O (stereo not given in full)"
  Assigned label: "inactive"
- Compound: "Nc1ccc(C(=O)Nn2c(-c3ccccc3)nc3ccccc3c2=O)cc1"
  Assigned label: "inactive"
- Compound: "O=C(CCc1ccc(O)c(O)c1)OCCc1ccccc1"
  Assigned label: "inactive"
- Compound: "c1ccc(NC[Si]23OCCN(CCO2)CCO3)cc1"
  Assigned label: "inactive"
- Compound: "N#Cc1ccc(-c2nc3c(N)nc(-c4ccccc4)nc3o2)cc1"
  Assigned label: "inactive"
- Compound: "C[C@@H]1O[C@]2(O)[C@@H]3CCCN3S(=O)(=O)CCN2C1=O"
  Assigned label: "inactive"

###

test system: HOP-92; assay: NCI tumour cell line growth inhibition, 48 h
Active and inactive are the calls of the source. Cut-off read from the data, not from the text of the source: active = GI50 up to about 1.1 µM and inactive = higher.
Entries and their GI50
Value type: GI50

- Molecule: "CN(C)CC(/C(Cc1ccccc1)=N\\NC(=O)C[n+]1ccccc1)c1ccccc1 (centres undefined)"
  Value type: "GI50"
  Reported measurement: "> 100 µM (inactive)"
- Molecule: "CCOC(=O)c1nc2ccccc2n(CC)c1=O"
  Value type: "GI50"
  Reported measurement: "> 100 µM (inactive)"
- Molecule: "C=C(Nc1ccc(OC)cc1OC)C(=O)Cc1cccc[n+]1[O-]"
  Value type: "GI50"
  Reported measurement: "> 100 µM (inactive)"
- Molecule: "O=C(CSCC(=O)N/N=C/c1ccccc1)N/N=C\\c1ccccc1"
  Value type: "GI50"
  Reported measurement: "> 100 µM (inactive)"
- Molecule: "CC(C)C1=CC(=O)[C@@](C)(C2[C@H](O)C[C@@]3(C)[C@@H]4CC=C5[C@@H](CC[C@@H](OC6OCC(O)C(O)C6OC6OC(C)C(O)C(O)C6O)C5(C)C)[C@]4(C)C(=O)C[C@]23C)O1 (some centres undefined)"
  Value type: "GI50"
  Reported measurement: "> 100 µM (inactive)"
- Molecule: "CC(C)(Br)C(Br)CCC1(C2CO2)CO1 (centres undefined)"
  Value type: "GI50"
  Reported measurement: "> 5 µM (inactive)"
- Molecule: "O=C1O/C(=C(/Cl)c2cccc3ccccc23)c2ccccc21"
  Value type: "GI50"
  Reported measurement: "> 100 µM (inactive)"
- Molecule: "Cc1ccc(NC(=O)/C(=N\\Nc2ccc([N+](=O)[O-])cc2[N+](=O)[O-])C2C(=O)NC(=O)NC2=O)cc1"
  Value type: "GI50"
  Reported measurement: "> 100 µM (inactive)"
- Molecule: "COc1cc([C@@H]2c3cc4c(cc3[C@@H](NCc3ccccc3)C3COC(=O)[C@@H]32)OCO4)cc(OC)c1O (some centres undefined)"
  Value type: "GI50"
  Reported measurement: "5.83 µM (inactive)"
